assay-target: UniProtKB Q05397
Sequence (Q05397 whole entry): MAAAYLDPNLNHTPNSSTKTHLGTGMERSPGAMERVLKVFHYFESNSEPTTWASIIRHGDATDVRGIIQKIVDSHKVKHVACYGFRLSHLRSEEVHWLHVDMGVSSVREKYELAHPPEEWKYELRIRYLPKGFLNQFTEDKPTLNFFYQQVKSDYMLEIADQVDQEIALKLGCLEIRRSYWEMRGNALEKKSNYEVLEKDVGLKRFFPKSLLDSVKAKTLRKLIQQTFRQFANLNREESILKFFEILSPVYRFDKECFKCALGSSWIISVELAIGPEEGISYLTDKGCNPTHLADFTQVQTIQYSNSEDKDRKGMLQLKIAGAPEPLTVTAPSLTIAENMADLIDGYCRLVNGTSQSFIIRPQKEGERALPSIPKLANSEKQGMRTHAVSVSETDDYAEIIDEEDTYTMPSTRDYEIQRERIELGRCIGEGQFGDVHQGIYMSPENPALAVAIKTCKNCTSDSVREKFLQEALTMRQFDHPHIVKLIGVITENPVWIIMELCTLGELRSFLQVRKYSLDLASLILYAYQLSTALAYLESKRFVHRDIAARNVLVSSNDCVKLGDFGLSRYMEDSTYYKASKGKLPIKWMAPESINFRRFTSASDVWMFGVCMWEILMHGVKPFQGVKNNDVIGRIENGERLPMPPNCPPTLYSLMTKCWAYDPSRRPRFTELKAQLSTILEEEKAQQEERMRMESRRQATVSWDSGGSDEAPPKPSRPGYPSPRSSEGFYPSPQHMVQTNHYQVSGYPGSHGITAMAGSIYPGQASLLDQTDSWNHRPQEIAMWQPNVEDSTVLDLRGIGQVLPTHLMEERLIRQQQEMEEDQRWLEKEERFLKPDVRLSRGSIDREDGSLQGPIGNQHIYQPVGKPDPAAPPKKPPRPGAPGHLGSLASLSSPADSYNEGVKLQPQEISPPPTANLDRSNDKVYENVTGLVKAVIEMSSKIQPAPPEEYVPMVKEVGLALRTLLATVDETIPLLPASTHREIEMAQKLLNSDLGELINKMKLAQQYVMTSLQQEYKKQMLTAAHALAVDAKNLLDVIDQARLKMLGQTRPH
value-kind: IC50

* COc1cc(C(=O)NCCOCCOCCOCC(=O)N[C@H](C(=O)N2C[C@H](O)C[C@H]2C(=O)NCc2ccc(-c3scnc3C)cc2)C(C)(C)C)ccc1Nc1ncc(C(F)(F)F)c(Oc2cccc3c2C(=O)CC3)n1 | 0.019 µM
